test system: TAK1; construct: gene MAP3K7; details: Compound Concentration (nM):1000;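 also: KINOMEscan scanMAX binding as percent activity remaining versus control; lower means stronger binding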

# COMPOUND, Percent Control / %
measured = [
    ("COc1cc2ncn(-c3cc(O[C@H](C)c4ccccc4Cl)c(C(N)=O)s3)c2cc1OC [GSK237701A]", 78),
    ("Cc1cc(O)cc(C)c1/C=C/c1cncc(C(N)=O)c1 [GW435821X]", 100),
    ("COC(=O)Nc1nc2ccc(Oc3ccc(NC(=O)Nc4cc(C(F)(F)F)ccc4F)cc3)cc2s1.Cl [GW693917A]", 5.8),
    ("COc1cc2ncnc(Nc3ccc4c(cnn4Cc4ccccc4)c3)c2cc1OC.Cl [GW282449A]", 100),
    ("CCn1c(-c2nonc2N)nc2c(C#CC(C)(C)O)nc(OCCNC)cc21.Cl [GSK949675]", 85),
    ("NS(=O)(=O)c1ccc(N/N=C2\\C(=O)Nc3ccc(-c4cnco4)cc32)cc1 [GW276655]", 32),
    ("CC(C)COC(=O)c1ccc2c(c1)/C(=C/Nc1ccc(S(N)(=O)=O)cc1)C(=O)N2 [GW416981X]", 21),
    ("CN1CCN(C(=O)c2ccc(NC(=O)Nc3ccc(N(C)c4ccnc(Nc5ccc(CS(C)(=O)=O)cc5)n4)cc3)cc2)CC1.Cl [GW830263A]", 25),
    ("CC1=C(C(=O)Nc2ccc3[nH]ncc3c2)C(c2ccc(Cl)c(Cl)c2)CC(=O)N1 (stereo not shown) [GSK299115A]", 82),
    ("NS(=O)(=O)c1ccc(Nc2ncc(-c3ccccc3)o2)cc1 [GW572399X]", 100),
]
